- target-system: recombinant human secreted phospholipase A2 (Homo sapiens, UniProt P14555)
- Sequence (P14555 21-144): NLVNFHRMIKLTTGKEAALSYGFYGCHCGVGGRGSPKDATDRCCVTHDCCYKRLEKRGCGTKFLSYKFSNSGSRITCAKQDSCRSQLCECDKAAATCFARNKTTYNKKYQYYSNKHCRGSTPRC
- test-name: chromogenic assay for inhibitors of recombinant human secreted phospholipase A2
- Assay type: biochemical
- study-conditions: diheptanoyl thio-PC substrate, pH 7.5, 40° C. for 30 minutes, absorbance at 405 nanometers, titrated in triplicate
The entries below are paired with their reported IC50.
readout-kind: IC50 (µM)

{"smiles": "CCc1c(C(=O)C(N)=O)c2c(OCC(=O)OCc3ccccc3)c3ccccc3cc2n1Cc1ccccc1", "reading": 14.3}
{"smiles": "CCc1c(C(=O)C(N)=O)c2c(OCC(=O)O)c3ccccc3cc2n1Cc1ccccc1", "reading": 1.06}
{"smiles": "CCOC(=O)COc1c2ccccc2cc2c1c(C(=O)C(N)=O)c(CC)n2Cc1ccccc1", "reading": 1.3}
